Target: GST-PTEN (amino-terminal phosphatase domain) (Homo sapiens, UniProt P60484 1-200)
Sequence (P60484 1-200): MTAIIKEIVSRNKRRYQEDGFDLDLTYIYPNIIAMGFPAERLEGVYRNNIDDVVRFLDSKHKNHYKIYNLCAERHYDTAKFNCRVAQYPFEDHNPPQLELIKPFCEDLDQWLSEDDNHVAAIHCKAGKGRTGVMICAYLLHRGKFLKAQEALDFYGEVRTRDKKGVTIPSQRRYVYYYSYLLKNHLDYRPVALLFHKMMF
Assay: filter binding, Scatchard; called affinity constant; Filter binding: 50 mM Tris (pH not given), 1 h, 40 µl, protein 0.5 mg/ml (Fig. 2E: GST-PTEN 25 µM), PBS washes; co-precipitation 1 h at room temperature, 1 µM aptamer; pull-down from homogenate with 250 nM aptamer, salmon sperm DNA, RIPA (1:2)/PBS washes; blots in PBS-BSA 2%
Details: protein: recombinant; tags: GST (N-terminal, pGEX2T); label: 5'-biotin or 32P (assay dependent); hairpin; 13 bp stem from the constant regions
Measured Property: pKd
Convention used: pKd is expressed as -log10 of the molar concentration.

PTENz7 (structured_DNA) DNA: CGGAATTCCGAGCGTGGGCGTGGTCATACCGCGCCTATCGAACTCGCCACTCGCGTGCAGCTCTGTGTAGGTACGCCCACGCTCGAG yielded pKd of 7.12
